molecular target: human A2B receptor (Homo sapiens (Human), UniProt P29275); experiment: Intracellular cAMP functional assay (HTRF), A2B; type: cell-based; conditions: HEK293 cells expressing recombinant human receptor
Sequence (P29275 whole entry): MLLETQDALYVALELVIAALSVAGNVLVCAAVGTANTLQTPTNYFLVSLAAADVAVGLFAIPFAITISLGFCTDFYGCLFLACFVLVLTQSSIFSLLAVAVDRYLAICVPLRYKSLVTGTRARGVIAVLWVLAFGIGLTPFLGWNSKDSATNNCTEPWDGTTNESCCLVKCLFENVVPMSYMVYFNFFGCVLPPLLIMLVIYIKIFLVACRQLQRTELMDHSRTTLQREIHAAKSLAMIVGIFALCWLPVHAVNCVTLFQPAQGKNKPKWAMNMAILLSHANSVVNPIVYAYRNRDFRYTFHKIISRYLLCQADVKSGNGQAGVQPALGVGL
Quantity measured: EC50 (nM)

P = Cc1cnccc1-c1sc(Nc2nc[nH]n2)nc1-c1cccc(C#N)c1 [Compound 22]
Q = Cc1cncnc1-c1sc(Nc2n[nH]c(C3CC3)n2)nc1-c1cccc(C#N)c1 [Compound 27]
R = Cc1cc(-c2sc(Nc3n[nH]c(C4CC4)n3)nc2-c2cccc(C#N)c2)c(C)cn1 [Compound 4]
INPUT: Order the entries above by descending EC50. // respond by listing labels in the order requested
OUTPUT: Q, R, P
(Q: 1.7 nM, R: 0.99 nM, P: 0.6 nM)

The values you see were collected from patent US20250101013A1.
